Target: TRIM66_(965-1160) E968A (human, UniProt O15016 965-1160, E968A)
Sequence (O15016 1100-1295 E1103A): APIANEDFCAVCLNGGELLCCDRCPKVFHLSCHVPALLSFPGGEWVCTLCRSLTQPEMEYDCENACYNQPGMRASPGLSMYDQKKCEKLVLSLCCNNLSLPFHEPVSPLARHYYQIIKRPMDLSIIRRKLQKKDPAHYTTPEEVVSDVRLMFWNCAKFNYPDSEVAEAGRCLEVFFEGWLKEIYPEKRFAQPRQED
Experiment: ITC
assay.endpoint: pKd
Answers are plain numbers, as −log10 of the molar value.

Q: Which pKd is reported for this binder? ARTKQTARKSTG (peptide, UniProt P68431 2-13, looked up, histone H3, residues 1-12, unmodified; also called unH3_(1-12); unmodified H3_(1-12); source: synthetic peptide (GL Biochem, Shanghai)) [H3_(1-12) peptide, unmodified]
Result: 4.46
